Each recorded value in this set is attributed to ChEMBL document CHEMBL1153595.

What Ki was measured for each of the following?
system-under-test: Mitogen-activated protein kinase 14 (Homo sapiens)
Sequence (Q16539 whole entry): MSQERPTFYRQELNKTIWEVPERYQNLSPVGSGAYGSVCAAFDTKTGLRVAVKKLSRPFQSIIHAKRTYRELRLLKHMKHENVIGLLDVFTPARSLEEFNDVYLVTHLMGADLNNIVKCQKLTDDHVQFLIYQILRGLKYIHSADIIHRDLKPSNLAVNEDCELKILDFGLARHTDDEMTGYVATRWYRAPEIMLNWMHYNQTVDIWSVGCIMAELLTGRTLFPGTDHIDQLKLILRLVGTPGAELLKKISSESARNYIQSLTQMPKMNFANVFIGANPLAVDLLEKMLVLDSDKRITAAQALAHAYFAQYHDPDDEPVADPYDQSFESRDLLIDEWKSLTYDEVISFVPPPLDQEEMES
experiment-notes: Inhibition of p38alpha by spectrophotometric coupled enzyme assay
Give bare numbers, in µM.

INSERT INTO assay_data (smiles_str, property_measured, reported) VALUES
  ('O=C1/C(=N\O)c2c(/C=C/c3ccccc3)cccc2N1Cc1cc(F)cc2c1OCOC2', 'Ki', 0.23);

// each molecule listed below needs its Ki
1. O=C1/C(=N\O)c2c(-c3cccc(F)c3)cccc2N1Cc1cc(F)cc2c1OCOC2
2. C=Cc1cccc2c1/C(=N/O)C(=O)N2Cc1cc(F)cc2c1OCOC2
3. O=C1/C(=N\O)c2c(CCc3ccccc3)cccc2N1Cc1cc(F)cc2c1OCOC2
4. O=C1/C(=N\O)c2c(-c3ccccc3)cccc2N1Cc1cc(F)cc2c1OCOC2
5. O=C1/C(=N\O)c2c(-c3ccc(F)cc3)cccc2N1Cc1cc(F)cc2c1OCOC2

**Result**
7.4
8
0.03
9.5
3.4
